- target of assay: Recombinant soluble human NEP (Homo sapiens)
- Construct: Recombinant soluble human NEP; purchased BioTechne, Wiesbaden, Germany
- Sequence (P08473 52-750 limits assumed): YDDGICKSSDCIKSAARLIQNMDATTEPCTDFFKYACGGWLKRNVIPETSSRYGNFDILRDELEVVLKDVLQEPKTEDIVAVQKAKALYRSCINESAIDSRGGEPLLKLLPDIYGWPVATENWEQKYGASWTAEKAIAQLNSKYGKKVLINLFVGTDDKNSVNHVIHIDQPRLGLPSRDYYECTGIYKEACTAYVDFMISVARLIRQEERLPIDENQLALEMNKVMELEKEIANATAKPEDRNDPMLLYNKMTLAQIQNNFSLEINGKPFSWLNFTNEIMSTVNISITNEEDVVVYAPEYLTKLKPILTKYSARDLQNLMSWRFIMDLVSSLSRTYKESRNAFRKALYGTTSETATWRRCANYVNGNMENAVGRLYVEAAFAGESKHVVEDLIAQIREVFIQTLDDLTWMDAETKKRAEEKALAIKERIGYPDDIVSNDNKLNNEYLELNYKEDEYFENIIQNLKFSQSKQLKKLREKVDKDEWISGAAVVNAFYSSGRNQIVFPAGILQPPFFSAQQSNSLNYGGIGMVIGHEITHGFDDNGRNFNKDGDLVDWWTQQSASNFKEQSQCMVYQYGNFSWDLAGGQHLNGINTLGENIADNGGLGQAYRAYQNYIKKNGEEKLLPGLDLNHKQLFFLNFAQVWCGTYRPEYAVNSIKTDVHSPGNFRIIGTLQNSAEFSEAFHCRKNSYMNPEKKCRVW
- assay info: Proteolytic stability assay against NEP
- Assay type: in vitro ADME
- experimental context: recombinant soluble human NEP, human NEP 100 ng/mL, compound 10 µM, 37°C, LC-MS quantification, read-out: % intact compound remaining after 24h incubation
*1 amine or outer side, *2 acyl side, *3 side chain or, on linkers, in order; H or OH if unused. Where a SMILES comes first, the peptide text is derived from it. Bridges are numbered along the chain shown (N, C = ends). [ ]: non-standard residue; d: D form. The star is where a group is joined. DOTA = O=C(O)CN1CCN(CC(=O)O)CCN(CC(=O)*)CCN(CC(=O)O)CC1; Pro(trans-4-F) = O=C(O)[C@@H]1C[C@@H](F)CN1; Hyp = O=C(O)[C@@H]1C[C@@H](O)CN1; Pentanoyl(4-Me) = CC(C)CCC(=O)*; Cit = NC(=O)NCCC[C@H](N)C(=O)O; Suc = O=C(CCC(=O)[*:2])[*:1]; Nva = CCC[C@H](N)C(=O)O; Pentanoyl = CCCCC(=O)*
Overview of recorded remaining at 24 h, 10 µM for various molecules

>  <molecule>
CC[C@H](C)[C@@H]1NC(=O)[C@@H](C)NC(=O)[C@@H]2CCCN2C(=O)[C@H](Cc2ccccc2)NC(=O)[C@H](Cc2ccc(O)cc2)NC(=O)[C@H](CCC(N)=O)NC(=O)[C@H](CCCNC(N)=O)NC(=O)[C@@H](NC(=O)[C@H](CC(C)C)NC(=O)CN2CCN(CC(=O)O)CCN(CC(=O)O)CCN(CC(=O)O)CC2)CSSC[C@@H](C(N)=O)NC(=O)[C@H](CC(C)C)NC1=O [UPAR-441] ({DOTA}-LC[Cit]QYFP[dA]ILC-NH2; disulfide 2-11)

>  <remaining at 24 h, 10 µM>
61%

$$$$
>  <molecule>
CC[C@H](C)[C@@H]1NC(=O)[C@@H]2CCCN2C(=O)[C@@H]2CCCN2C(=O)[C@H](Cc2ccccc2)NC(=O)[C@H](Cc2ccc(O)cc2)NC(=O)[C@H](CCCCNC(=O)CN2CCN(CC(=O)O)CCN(CC(=O)O)CCN(CC(=O)O)CC2)NC(=O)[C@H](CCCNC(N)=O)NC(=O)[C@@H](NC(=O)CCC(C)C)CSSC[C@@H](C(N)=O)NC(=O)[C@H](CC(C)C)NC1=O [UPAR-382] ({Pentanoyl(4-Me)}-C[Cit]K(DOTA)YFPPILC-NH2; disulfide 1-10)

>  <remaining at 24 h, 10 µM>
> 95%

$$$$
>  <molecule>
CCC[C@H](NC(=O)CCC(=O)O)C(=O)N[C@H]1CSSC[C@@H](C(N)=O)NC(=O)[C@H](CCC)NC(=O)[C@H]([C@@H](C)CC)NC(=O)[C@@H]2C[C@@H](O)CN2C(=O)[C@@H]2CCCN2C(=O)[C@H](Cc2ccccc2)NC(=O)[C@H](Cc2ccc(O)cc2)NC(=O)[C@H](CCCCNC(=O)CN2CCN(CC(=O)O)CCN(CC(=O)O)CCN(CC(=O)O)CC2)NC(=O)[C@H](CCCNC(N)=O)NC1=O [UPAR-293] (Suc-[Nva]C[Cit]K(DOTA)YFP[Hyp]I[Nva]C-NH2; disulfide 2-11)

>  <remaining at 24 h, 10 µM>
> 95%

$$$$
>  <molecule>
CCCCC(=O)N[C@H]1CSSC[C@@H](C(N)=O)NC(=O)[C@H](CCC)NC(=O)[C@H]([C@@H](C)CC)NC(=O)[C@@H]2C[C@@H](F)CN2C(=O)[C@@H]2CCCN2C(=O)[C@H](Cc2ccccc2)NC(=O)[C@H](Cc2ccc(O)cc2)NC(=O)[C@H](CCCCNC(=O)CN2CCN(CC(=O)O)CCN(CC(=O)O)CCN(CC(=O)O)CC2)NC(=O)[C@H](CCCNC(N)=O)NC1=O [UPAR-246] (Pentanoyl-C[Cit]K(DOTA)YFP[Pro(trans-4-F)]I[Nva]C-NH2; disulfide 1-10)

>  <remaining at 24 h, 10 µM>
89%

$$$$

get_value(item= CC[C@H](C)[C@@H]1NC(=O)[C@@H](CCCNC(=N)N)NC(=O)[C@@H]2CCCN2C(=O)[C@H](Cc2ccccc2)NC(=O)[C@H](Cc2ccc(O)cc2)NC(=O)[C@H](CCCCNC(=O)CN2CCN(CC(=O)O)CCN(CC(=O)O)CCN(CC(=O)O)CC2)NC(=O)[C@H](CCCNC(N)=O)NC(=O)[C@@H](NC(=O)[C@H](CC(C)C)NC(=O)[C@H](CC(=O)O)NC(C)=O)CSSC[C@@H](C(N)=O)NC(=O)[C@H](CC(C)C)NC1=O [UPAR-306] (Ac-DLC[Cit]K(DOTA)YFP[dR]ILC-NH2; disulfide 3-12) , readout=remaining at 24 h, 10 µM) returns 88%

###

- target of assay: human uPAR (uPAR-Fc) (Homo sapiens)
- Construct: comprising amino acids Leu23-Arg303 according to UniProt entry Q03405.1; purchased R&D Systems 10378-UK-100
- Sequence (Q03405 23-303): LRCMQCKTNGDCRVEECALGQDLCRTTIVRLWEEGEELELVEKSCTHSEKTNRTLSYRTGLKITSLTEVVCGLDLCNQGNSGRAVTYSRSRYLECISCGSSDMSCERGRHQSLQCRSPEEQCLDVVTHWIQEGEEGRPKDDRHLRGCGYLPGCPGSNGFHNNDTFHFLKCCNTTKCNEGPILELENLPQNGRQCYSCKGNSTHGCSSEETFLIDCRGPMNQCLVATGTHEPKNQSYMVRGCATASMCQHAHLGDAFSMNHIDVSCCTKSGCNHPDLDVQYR
- assay info: Surface plasmon resonance (SPR) assay, single cycle kinetics
- Type: binding
- experimental context: pKD category for uPAR SPR activity assay; uPAR-Fc on Protein A-Chip, single cycle kinetics, 25°C; read-out: pKD CAT (converted)
*1 amine or outer side, *2 acyl side, *3 side chain or, on linkers, in order; H or OH if unused. Where a SMILES comes first, the peptide text is derived from it. Bridges are numbered along the chain shown (N, C = ends). [ ]: non-standard residue; d: D form. The star is where a group is joined. Ethylenediamine = C(CN[*:2])N[*:1]; Hyp = O=C(O)[C@@H]1C[C@@H](O)CN1; hPhe = N[C@@H](CCc1ccccc1)C(=O)O; Cit = NC(=O)NCCC[C@H](N)C(=O)O; Nva = CCC[C@H](N)C(=O)O; Pentanoyl = CCCCC(=O)*
readout label: Kd

>  <compound>
CCC[C@@H]1NC(=O)[C@H]([C@@H](C)CC)NC(=O)[C@@H]2C[C@@H](O)CN2C(=O)[C@@H]2CCCN2C(=O)[C@H](Cc2ccccc2)NC(=O)[C@H](Cc2ccc(O)cc2)NC(=O)[C@H](CCC(N)=O)NC(=O)[C@H](CCCNC(=N)N)NC(=O)[C@@H](NC(=O)[C@H](CCc2ccccc2)NC(C)=O)CSSC[C@@H](C(N)=O)NC1=O [UPAR-484] (Ac-[hPhe]CRQYFP[Hyp]I[Nva]C-NH2; disulfide 2-11)

>  <readout label>
Kd

>  <readout value>
1.58 to 10 nM

$$$$

Record CCCCC(=O)N[C@H]1CSSC[C@@H](C(=O)NCCN)NC(=O)[C@H](CCC)NC(=O)[C@H]([C@@H](C)CC)NC(=O)[C@@H]2C[C@@H](O)CN2C(=O)[C@@H]2CCCN2C(=O)[C@H](Cc2ccccc2)NC(=O)[C@H](Cc2ccc(O)cc2)NC(=O)[C@H](CCC(N)=O)NC(=O)[C@H](CCCNC(N)=O)NC1=O [UPAR-430] (Pentanoyl-C[Cit]QYFP[Hyp]I[Nva]C-Ethylenediamine; disulfide 1-10) . Reported Kd: 1.58 to 10 nM

###

- assay info: Plasma stability assay (mouse plasma)
- Format: in vitro ADME
- experimental context: mouse plasma (sodium citrate 3.7%), 37°C, LC-MS quantification, read-out: % intact compound remaining after 6h incubation Mouse plasma
*1 amine or outer side, *2 acyl side, *3 side chain or, on linkers, in order; H or OH if unused. Where a SMILES comes first, the peptide text is derived from it. Bridges are numbered along the chain shown (N, C = ends). Side-chain parts run from the residue outwards. [ ]: non-standard residue; d: D form. The star is where a group is joined. DOTA = O=C(O)CN1CCN(CC(=O)O)CCN(CC(=O)*)CCN(CC(=O)O)CC1; PEG12 = NCCOCCOCCOCCOCCOCCOCCOCCOCCOCCOCCOCCOCCC(=O)O; Hyp = O=C(O)[C@@H]1C[C@@H](O)CN1; Pentanoyl(4-Me) = CC(C)CCC(=O)*; Cit = NC(=O)NCCC[C@H](N)C(=O)O; Suc = O=C(CCC(=O)[*:2])[*:1]; Nva = CCC[C@H](N)C(=O)O; Hexanoyl = CCCCCC(=O)*; Pentanoyl = CCCCC(=O)*
Classify: yes when remaining at 6 h, 9.8 µM is strictly less than 90%; no when remaining at 6 h, 9.8 µM is not.

Check out these entries, answers already filled in.
>  <compound>
CC[C@H](C)[C@@H]1NC(=O)[C@@H](CCCNC(=N)N)NC(=O)[C@@H]2CCCN2C(=O)[C@H](Cc2ccccc2)NC(=O)[C@H](Cc2ccc(O)cc2)NC(=O)[C@H](CCCCNC(=O)CN2CCN(CC(=O)O)CCN(CC(=O)O)CCN(CC(=O)O)CC2)NC(=O)[C@H](CCCNC(N)=O)NC(=O)[C@@H](NC(=O)[C@H](CC(C)C)NC(=O)[C@H](CC(=O)O)NC(C)=O)CSSC[C@@H](C(N)=O)NC(=O)[C@H](CC(C)C)NC1=O [UPAR-306] (Ac-DLC[Cit]K(DOTA)YFP[dR]ILC-NH2; disulfide 3-12)

>  <assigned class>
no

$$$$
>  <compound>
CCCCC(=O)N[C@H]1CSSC[C@@H](C(N)=O)NC(=O)[C@H](CCC)NC(=O)[C@H]([C@@H](C)CC)NC(=O)[C@@H]2C[C@@H](O)CN2C(=O)[C@@H]2CCCN2C(=O)[C@H](Cc2ccccc2)NC(=O)[C@H](Cc2ccc(O)cc2)NC(=O)[C@H](CCCCNC(=O)CN2CCN(CC(=O)O)CCN(CC(=O)O)CCN(CC(=O)O)CC2)NC(=O)[C@H](CCCNC(N)=O)NC1=O [UPAR-261] (Pentanoyl-C[Cit]K(DOTA)YFP[Hyp]I[Nva]C-NH2; disulfide 1-10)

>  <assigned class>
yes

$$$$
>  <compound>
CCCCC(=O)N[C@H]1CSSC[C@@H](C(N)=O)NC(=O)[C@H](CCC)NC(=O)[C@H]([C@@H](C)CC)NC(=O)[C@@H]2C[C@@H](O)CN2C(=O)[C@@H]2C[C@@H](O)CN2C(=O)[C@H](Cc2ccccc2)NC(=O)[C@H](Cc2ccc(O)cc2)NC(=O)[C@H](CCCCNC(=O)CN2CCN(CC(=O)O)CCN(CC(=O)O)CCN(CC(=O)O)CC2)NC(=O)[C@H](CCCNC(N)=O)NC1=O [UPAR-403] (Pentanoyl-C[Cit]K(DOTA)YF[Hyp][Hyp]I[Nva]C-NH2; disulfide 1-10)

>  <assigned class>
yes

$$$$
>  <compound>
CCC[C@H](NC(=O)CCC(=O)O)C(=O)N[C@H]1CSSC[C@@H](C(N)=O)NC(=O)[C@H](CCC)NC(=O)[C@H]([C@@H](C)CC)NC(=O)[C@@H]2C[C@@H](O)CN2C(=O)[C@@H]2CCCN2C(=O)[C@H](Cc2ccccc2)NC(=O)[C@H](Cc2ccc(O)cc2)NC(=O)[C@H](CCCCNC(=O)CN2CCN(CC(=O)O)CCN(CC(=O)O)CCN(CC(=O)O)CC2)NC(=O)[C@H](CCCNC(N)=O)NC1=O [UPAR-293] (Suc-[Nva]C[Cit]K(DOTA)YFP[Hyp]I[Nva]C-NH2; disulfide 2-11)

>  <assigned class>
no

$$$$
>  <compound>
CCCCC(=O)N[C@H]1CSSC[C@@H](C(N)=O)NC(=O)[C@H](CCC)NC(=O)[C@H]([C@@H](C)CC)NC(=O)[C@@H]2C[C@@H](O)CN2C(=O)[C@@H]2CCCN2C(=O)[C@H](Cc2ccccc2)NC(=O)[C@H](Cc2ccc(O)cc2)NC(=O)[C@H](CCCCNC(=O)CCOCCOCCOCCOCCOCCOCCOCCOCCOCCOCCOCCOCCNC(=O)CN2CCN(CC(=O)O)CCN(CC(=O)O)CCN(CC(=O)O)CC2)NC(=O)[C@H](CCCNC(N)=O)NC1=O [UPAR-200] (Pentanoyl-C[Cit]K([PEG12-DOTA])YFP[Hyp]I[Nva]C-NH2; disulfide 1-10)

>  <assigned class>
no

$$$$
>  <compound>
CC[C@H](C)[C@@H]1NC(=O)[C@@H](C)NC(=O)[C@@H]2CCCN2C(=O)[C@H](Cc2ccccc2)NC(=O)[C@H](Cc2ccc(O)cc2)NC(=O)[C@H](CCC(N)=O)NC(=O)[C@H](CCCNC(N)=O)NC(=O)[C@@H](NC(=O)CCC(C)C)CSSC[C@@H](C(N)=O)NC(=O)[C@H](CC(C)C)NC1=O [UPAR-338] ({Pentanoyl(4-Me)}-C[Cit]QYFP[dA]ILC-NH2; disulfide 1-10)

>  <assigned class>
yes

$$$$

Enquiry: Check if remaining at 6 h, 9.8 µM falls below 90% for CCCCCC(=O)N[C@@H](CC(=O)O)C(=O)N[C@@H](CC(C)C)C(=O)N[C@H]1CSSC[C@@H](C(N)=O)NC(=O)[C@H](CC(C)C)NC(=O)[C@H]([C@@H](C)CC)NC(=O)[C@H](CCCCNC(=O)CN2CCN(CC(=O)O)CCN(CC(=O)O)CCN(CC(=O)O)CC2)NC(=O)[C@@H]2CCCN2C(=O)[C@H](Cc2ccccc2)NC(=O)[C@H](Cc2ccc(O)cc2)NC(=O)[C@H](CCSC)NC(=O)[C@H](CCCNC(=N)N)NC1=O [UPAR-351] (Hexanoyl-DLCRMYFPK(DOTA)ILC-NH2; disulfide 3-12) .
Return: no
